Data origin: patent US20250250285A1

tested on: PDAC030T; experiment: Cell viability (CellTiter-Blue), IC50 on PDAC030T; assay type: cell-based, human; details: Homo sapiens, 72 h treatment
measuredProperty: pIC50
Answers are plain numbers, as −log10 of the molar value.

molecule	pIC50
CC[C@@H](C(=O)[C@@H](C)[C@@H](O)[C@H](C)[C@@H]1O[C@@H]([C@@H](CC)C(=O)OC2O[C@@H]3O[C@]4(C)CC[C@H]5[C@H](C)CC[C@@H]([C@H]2C)[C@@]35OO4)CC[C@@H]1C)[C@H]1O[C@]2(C=C[C@@H](O)[C@]3(CC[C@@](C)([C@H]4CC[C@](O)(CC)[C@H](C)O4)O3)O2)[C@H](C)C[C@@H]1C (some centres unmarked) [MA-I-023, Salinomycin-dihydroartemisinin prodrug]	6.12

Alright, here's another molecule for you.
Qu. Print PDAC030T pIC50 for C[C@H]1[C@@H](O)O[C@@H]2O[C@@]3(C)CC[C@H]4[C@H](C)CC[C@@H]1[C@@]24OO3 [DHA, dihydroartemisinin, reference compound] .
Ans. 5.09
